Cited source: ChEMBL document CHEMBL1201862

# System: NCI-H460
# test.details: NCI tumour cell line growth inhibition, 48 h
Activity calls are given as the source filed them. No stated cut-off is given here; in the data, active = GI50 up to about 1.1 µM and inactive = higher.
As shown below, each of these molecules has a reported GI50 value.
quantity.measured: GI50

> print(dat)
                                    molecule  quantity.measured               result
 1         O=C(Nc1ccc(I)cc1C(=O)NCCO)c1cccs1               GI50   85.3 µM (inactive)
 2                     N#Cc1ccccc1Sc1ccccc1N               GI50  > 100 µM (inactive)
 3  CC(C)(C)N/N=C(\Cc1occc(=O)c1O)C(=O)Nc1ccc([N+](=O)[O-])cc1[N+](=O)[O-]               GI50  > 100 µM (inactive)
 4  CC(=O)Nc1ccccc1[S+]([O-])c1ccccc1 (stereo unspecified)               GI50  > 100 µM (inactive)
 5    O=C(O)/C(=C\c1ccc(O)cc1)c1cccc2ccccc12               GI50  > 100 µM (inactive)
 6        CC(C)(CN1CCCCC1)C(=O)/C=C/c1ccccc1               GI50   22.4 µM (inactive)
 7  CCC1(C)NC(c2cnccn2)=NN1c1ccc(Cl)cc1 (stereo unspecified)               GI50   81.7 µM (inactive)
 8  COc1ccc(N2C(=O)C3ON(Cc4ccc(CC(N)=O)cc4)C(c4c5ccccc5c(C)c5ccccc45)C3C2=O)cc1 (stereo unspecified)               GI50   13.6 µM (inactive)
 9  O=C1NC(O)c2cc3ccccc3cc2O1 (stereo unspecified)               GI50  > 100 µM (inactive)
10  CC1Cc2cc(O)ccc2C2[C@@H]1C1CC[C@H](O)[C@@]1(C)C[C@@H]2O[N+](=O)[O-] (stereo partly specified)               GI50   9.35 µM (inactive)
11  O=c1cc(-c2ccccc2)oc2ccc(-c3ccc4oc(-c5ccccc5)cc(=O)c4c3)cc12               GI50   19.6 µM (inactive)
